B1: EHEE_rd2_0196 (parent)
chain: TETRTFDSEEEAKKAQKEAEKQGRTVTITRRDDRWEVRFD

- Variants of: B1
- Assay Details: folding stability dG (cDNA display proteolysis); higher = more stable
- Reported Conditions: PBS, room temperature

>  <Biosequence>
TETRTFDSEEEAKKNQKEAEKQGRTVTITRRDDRWEVRFD

>  <folding stability dG [kcal/mol]>
1.58

$$$$
>  <Biosequence>
TETRTFDSEEEAKKAQKEAEKQGRTVTITRRDDRQEVRFD

>  <folding stability dG [kcal/mol]>
0.348

$$$$
>  <Biosequence>
TETRTFDSEEEAKKAQKEQEKQGRTVTITRRDDRWEVRFD

>  <folding stability dG [kcal/mol]>
2.13

$$$$
>  <Biosequence>
TETRTFDSEEEAKKAQKEAEKQGRTVTIGRRDDRWEVRFD

>  <folding stability dG [kcal/mol]>
2.02

$$$$
>  <Biosequence>
TETRVFDSEEEAKKAQKEAEKQGRTVTITRRDDRWEVRFD

>  <folding stability dG [kcal/mol]>
3.37

$$$$
>  <Biosequence>
TETRTFDSEEEAKKAQKEAEKQGRTVTITRRDDRWEVLFD

>  <folding stability dG [kcal/mol]>
2.69

$$$$
>  <Biosequence>
TEERTFDSEEEAKKAQKEAEKQGRTVTITRRDDRWEVRFD

>  <folding stability dG [kcal/mol]>
2.08

$$$$
>  <Biosequence>
VETRTFDSEEEAKKAQKEAEKQGRTVTITRRDDRWEVRFD

>  <folding stability dG [kcal/mol]>
3.21

$$$$
>  <Biosequence>
TETRTFDSEEEAKKAQKEAEKQGRTVTITRRDLRWEVRFD

>  <folding stability dG [kcal/mol]>
1.71

$$$$
>  <Biosequence>
TETRTFGSEEEAKKAQKEAEKQGRTVTITRRDDRWEVRFD

>  <folding stability dG [kcal/mol]>
2.74

$$$$
>  <Biosequence>
TETRTFDSEEEAKKAQKEAEKQGRTVTITDRDDRWEVRFD

>  <folding stability dG [kcal/mol]>
0.983

$$$$
